Tested on: isolated rat sciatic nerve
Assay: tissue or blood
Conditions: Table 3, 3.41 mg/mL; unit not given in Table 3, s

{"columns": ["COMPOUND", "STUDY_SYSTEM", "UNIT_SYMBOL", "IT0"],
 "data": [
  ["CCCCC(C)=O [2-hexanone]", "isolated rat sciatic nerve", "s", 401.00],
  ["CCC(=O)CC [3-pentanone]", "isolated rat sciatic nerve", "s", 765.00],
  ["CCCCCC(=O)CC [3-octanone]", "isolated rat sciatic nerve", "s", 722.50],
  ["CCCCCCC(C)=O [2-octanone]", "isolated rat sciatic nerve", "s", 555.00]
]}

Values compiled from paper PMC3472974.
